# test summary: protein stability index of a GFP-peptide fusion (GPS, HEK-293T) (PSI 1-6); higher = more stable;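 also: 24-mer peptide tiles fused after GFP, lentivirally expressed, FACS-sorted into six equal bins by GFP/DsRed ratio, decoded by Illumina sequencing, PSI is the read-weighted mean bin number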
# protocol conditions: treatment: DMSO; c terminus: a fixed tail appended
Where protein stability index equals or exceeds 3, the correct label is Fulfilled; where it does not, the label is Not fulfilled.

INSERT INTO measurements (ordered_residues, discrete_label) VALUES
  ('GLEAPRDLEAKEVTPRTALLTWTE [TNXB]', 'Fulfilled'),
  ('LSMVSECLFSLINGDDMFVTFAAM [MCOLN1]', 'Not fulfilled'),
  ('EDAYKIRIRIDDEPANLDILDTAG [RIT1]', 'Fulfilled'),
  ('KREREKEDIALNKHRSRRKWCFWN [RHOBTB1]', 'Not fulfilled');

Now for another entry.
Given the entry HPKDGPSPGGTLMDLSERQEVSSV [DLC1] , answer whether its protein stability index meets or surpasses 3.
Fulfilled
